tested on: NCI-H460; test: NCI tumour cell line growth inhibition, 48 h
The source made the active and inactive calls. Cut-off read from the data, not from the text of the source: active = GI50 up to about 1.1 µM and inactive = higher.
Outcomes: active, inactive

| molecule | target-desc | class-name |
| --- | --- | --- |
| CCOC(=O)c1[nH]c2cccc3c2c1CC(Br)C3=O (stereo not given) | NCI-H460 | inactive |
| C[C@H](CCC(=O)O)[C@H]1CC[C@@]2(C)[C@@H]3C(=O)C[C@H]4C(C)(C)[C@@H](O)CC[C@]4(C)[C@H]3C(=O)C[C@]12C | NCI-H460 | inactive |
| O=C(CCC1C(=O)NC(=S)NC1=O)c1ccc2ccccc2c1 | NCI-H460 | inactive |
| O=c1[nH]c(=O)n(C2CC(O)C(O)C(CO)O2)cc1F (stereo not given) | NCI-H460 | inactive |
| COC(=O)c1c(CC(Cc2ccc3c(c2)CCCC3)C(=O)OC)ccc2c1CCCC2 (stereo not given) | NCI-H460 | inactive |
| Cn1c(=O)cc(NNc2ccccc2)[nH]c1=O | NCI-H460 | inactive |
| CSc1nc(NC2OC(COC(C)=O)C(OC(C)=O)C(OC(C)=O)C2OC(C)=O)c(/N=C/C=N/c2c(NC3OC(COC(C)=O)C(OC(C)=O)C(OC(C)=O)C3OC(C)=O)nc(SC)[nH]c2=O)c(=O)[nH]1 (stereo not given) | NCI-H460 | inactive |
| COc1cc(C2c3cc4c(cc3[C@@H](Nc3ccc5c(c3)OCO5)C3COC(=O)[C@H]23)OCO4)cc(OC)c1O (stereo not given in full) | NCI-H460 | active |
| CSc1snc2sc3c(Cl)nnnc3c12 | NCI-H460 | inactive |
| CNC(=S)N(C1CCCCC1)C1CCCCC1 | NCI-H460 | inactive |

---

system: KM12; assay: NCI tumour cell line growth inhibition, 48 h
The source made the active and inactive calls. No stated cut-off is given here; in the data, active = GI50 up to about 1.1 µM and inactive = higher.

| compound | GI50 |
| --- | --- |
| COC(=O)C(CNC(=O)/C=C/c1ccc(OC(C)=O)c(OC(C)=O)c1)NC(=O)/C=C/c1ccc(OC(C)=O)c(OC(C)=O)c1 (stereo not given) | > 100 µM (inactive) |
| CN(C)CCCNc1cc(O)c2c(c1O)C(=O)c1ccccc1C2=O | 9.4 µM (inactive) |
| C[C@@H]1OC2(O)[C@H]3CCCN3S(=O)(=O)CCN2C1=O (stereo not given in full) | > 100 µM (inactive) |
| COc1ccc([Se]c2ccc(OC)cc2)cc1 | > 100 µM (inactive) |
| COC1C(=O)CCC2(CO2)C1(O)C1(C)OC1CCC(C)C (stereo not given) | 10.2 µM (inactive) |

---

test system: MOLT-4; assay: NCI tumour cell line growth inhibition, 48 h
The source made the active and inactive calls. Cut-off read from the data, not from the text of the source: active = GI50 up to about 1.1 µM and inactive = higher.
Outcomes: active, inactive

| compound | class-name |
| --- | --- |
| O=C1/C(=C/Cc2ccco2)N=C(c2ccccc2)N1c1nc2c(Cl)cc(Cl)cc2s1 | active |
| COC1=CC(=O)C(O)=C(CC2(C)C(C)CCC3(C)C2CCCC3(C)C)C1=O (stereo unspecified) | inactive |
| COC(=O)C(C(=O)C(=O)Nc1c(C)cccc1C)c1cnc2ccccc2n1 (stereo unspecified) | inactive |
| Cc1cn(C2CC(N=[N+]=[N-])C(C(=O)O)O2)c(=O)[nH]c1=O (stereo unspecified) | inactive |
| Cc1ccc2c(c1)C(=O)N(N(C)C)CC(=O)N2 | inactive |
| C/C=C/C=C/c1nc(C#N)c(N)o1 | inactive |
| N#Cc1nc(-c2ccccn2)c(-c2ccccn2)nc1C#N | inactive |
| [O-][n+]1c2c([n+]([O-])c3ccccc31)-c1cccc3cccc-2c13 | inactive |
| CON(C)C(=O)[C@H]1C[C@@]1(C)CO | inactive |
| COc1cc(Br)cc2cc(-c3cn4ccsc4n3)c(=O)oc12 | inactive |
| CCC1(N=[N+]=[N-])C(=O)c2ccccc2N(C)C1=O (stereo unspecified) | inactive |
